target: Adenosine receptor A3 (Homo sapiens); experiment: Displacement of [3H]-HEMADO from human recombinant adenosine A3 receptor transfected in CHO cells
Sequence (P0DMS8 whole entry): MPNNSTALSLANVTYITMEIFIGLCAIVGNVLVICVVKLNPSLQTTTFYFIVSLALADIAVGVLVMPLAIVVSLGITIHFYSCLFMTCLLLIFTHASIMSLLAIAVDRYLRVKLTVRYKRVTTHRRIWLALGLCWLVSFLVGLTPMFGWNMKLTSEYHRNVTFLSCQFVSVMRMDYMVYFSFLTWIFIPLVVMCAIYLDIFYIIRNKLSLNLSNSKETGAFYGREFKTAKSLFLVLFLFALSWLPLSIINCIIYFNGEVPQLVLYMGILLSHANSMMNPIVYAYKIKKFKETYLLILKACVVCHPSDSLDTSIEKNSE
For each record, write down the corresponding pKi.
Numbers only, as −log10 of the molar value.

Here are 4 compounds together with their reported answers.
[
  {
    "compound": "CCn1nnc([C@H]2O[C@@H](n3cnc4c(N[C@H]5C[C@@H]6CC[C@@H]5C6)nc(Cl)nc43)[C@H](O)[C@@H]2O)n1 (racemic)",
    "property.name": "pKi",
    "value.reported": 7.79
  },
  {
    "compound": "CCn1nnc([C@H]2O[C@@H](n3cnc4c(N[C@H]5C[C@@H]6CC[C@@H]5C6)ncnc43)[C@H](O)[C@@H]2O)n1 (racemic)",
    "property.name": "pKi",
    "value.reported": 8.05
  },
  {
    "compound": "CCn1nnc([C@H]2O[C@@H](n3cnc4c(NC5CCCO5)nc(Cl)nc43)[C@H](O)[C@@H]2O)n1 (stereo not given in full)",
    "property.name": "pKi",
    "value.reported": 8.02
  },
  {
    "compound": "CCn1nnc([C@H]2O[C@@H](n3cnc4c(NC5CCCO5)ncnc43)[C@H](O)[C@@H]2O)n1 (stereo not given in full)",
    "property.name": "pKi",
    "value.reported": 7.81
  }
]

Moving on to another compound below.
[Q] Which pKi is reported with Adenosine receptor A3 (Homo sapiens) for this entry: CCn1nnc([C@H]2O[C@@H](n3cnc4c(Nc5ccc(Cl)cc5F)ncnc43)[C@H](O)[C@@H]2O)n1 ?
[A] 8.58

---

target: Adenosine receptor A1 (Homo sapiens); assay: Displacement of [3H]-CCPA from human recombinant adenosine A1 receptor transfected in CHO cells
For each record, write down the corresponding Ki.
Give bare numbers, in nM.

Here are 4 compounds together with their reported answers.
[
  {
    "compound": "CCn1nnc([C@H]2O[C@@H](n3cnc4c(Nc5ccc(Cl)cc5F)nc(Cl)nc43)[C@H](O)[C@@H]2O)n1",
    "assayed.system": "Adenosine receptor A1 (Homo sapiens)",
    "value.reported": 1.67
  },
  {
    "compound": "CCn1nnc([C@H]2O[C@@H](n3cnc4c(N[C@H]5C[C@@H]6CC[C@@H]5C6)ncnc43)[C@H](O)[C@@H]2O)n1 (racemic)",
    "assayed.system": "Adenosine receptor A1 (Homo sapiens)",
    "value.reported": 0.453
  },
  {
    "compound": "CCn1nnc([C@H]2O[C@@H](n3cnc4c(NCc5ccccc5I)nc(Cl)nc43)[C@H](O)[C@@H]2O)n1",
    "assayed.system": "Adenosine receptor A1 (Homo sapiens)",
    "value.reported": 2.39
  },
  {
    "compound": "CCn1nnc([C@H]2O[C@@H](n3cnc4c(Nc5ccc(Cl)cc5F)ncnc43)[C@H](O)[C@@H]2O)n1",
    "assayed.system": "Adenosine receptor A1 (Homo sapiens)",
    "value.reported": 0.432
  }
]

Moving on to another compound below.
[Q] Which Ki is reported with Adenosine receptor A1 (Homo sapiens) for this entry: CCn1nnc([C@H]2O[C@@H](n3cnc4c(NC5CCCO5)nc(Cl)nc43)[C@H](O)[C@@H]2O)n1 (stereo not given in full) ?
[A] 1.06

---

Target: Adenosine receptor A1 (Homo sapiens)
Sequence (P30542 whole entry): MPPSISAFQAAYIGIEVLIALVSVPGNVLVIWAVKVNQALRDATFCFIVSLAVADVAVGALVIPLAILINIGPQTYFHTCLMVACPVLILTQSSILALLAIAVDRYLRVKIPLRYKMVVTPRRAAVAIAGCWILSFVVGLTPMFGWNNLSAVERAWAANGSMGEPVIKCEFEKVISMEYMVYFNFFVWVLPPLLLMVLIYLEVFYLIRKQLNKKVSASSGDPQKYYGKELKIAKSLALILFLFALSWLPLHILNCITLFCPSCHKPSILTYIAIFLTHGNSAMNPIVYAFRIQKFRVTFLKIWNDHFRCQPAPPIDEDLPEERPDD
Assay: Displacement of [3H]-CCPA from human recombinant adenosine A1 receptor transfected in CHO cells
Format: cell-based
Threshold-based label: Ki under 0.9 nM gives yes (1), Ki not under 0.9 nM gives no (0).

[
  {
    "compound": "CCn1nnc([C@H]2O[C@@H](n3cnc4c(N[C@H]5C[C@@H]6CC[C@@H]5C6)nc(Cl)nc43)[C@H](O)[C@@H]2O)n1 (racemic)",
    "label.value": "yes (1)"
  },
  {
    "compound": "CCn1nnc([C@H]2O[C@@H](n3cnc4c(N)nc(Cl)nc43)[C@H](O)[C@@H]2O)n1",
    "label.value": "no (0)"
  },
  {
    "compound": "CCn1nnc([C@H]2O[C@@H](n3cnc4c(NC5CCCO5)ncnc43)[C@H](O)[C@@H]2O)n1 (stereo not given in full)",
    "label.value": "no (0)"
  }
]

[Q] Please determine if CCn1nnc([C@H]2O[C@@H](n3cnc4c(NC5CC5)ncnc43)[C@H](O)[C@@H]2O)n1 is below 0.9 nM in terms of Ki.
[A] yes (1)
